Item-by-item account of inhibition
Measurement notes: H1N1 influenza NS1A inhibitors, functional cell based assay (AID 504329)
Experimental conditions: percent inhibition, at 12.5 µM, stronger effect = higher value
The campaign covered roughly 340,000 compounds. About 1,000 (0.29%) were called active. Not all results are given here. Potency and affinity values are given separately.
# value in %; strip the unit string

• Cc1ccccc1NC1=C/C(=N\S(=O)(=O)c2ccc(C(=O)O)cc2)c2ccccc2C1=O = 4.65
• O=c1[nH]c(=S)[nH]c2scc(-c3ccc(Br)cc3)c12 = -20.7

Look up inhibition for this compound: `COC(=O)c1cc(NS(=O)(=O)c2cccs2)cc(NS(=O)(=O)c2cccs2)c1`
-13.7

Further, for `O=C(NCc1cccs1)Nc1cc(Cl)ccc1Cl` ?
-3.84

Further, for `COC(=O)c1ccc(NC(=O)CNS(=O)(=O)c2cccs2)cc1` ?
1.39

Further, for `COc1ccc(C(=O)N/C(=C\c2cn(C)c3ccccc23)C(=O)NCCCn2ccnc2)cc1OC` ?
4.02

###

Measurement notes: H1N1 influenza NS1A inhibitors, functional cell based assay (AID 504329)
Experimental conditions: percent inhibition, at 12.5 µM, stronger effect = higher value
Among all 340,000 compounds or so, about 1,000 (0.29%) were called active. The list is a sample of the results. Potency and affinity values are given separately.
Item-by-item account of inhibition
# value in %; strip the unit string

Here is how some compounds turned out for inhibition.
• Cc1ccc(S(=O)(=O)NCC(c2ccc3c(c2)OCO3)N2CCN(c3ccccc3)CC2)cc1 (configuration not stated) = -19.9
• O=C(CSc1ccc(-c2ccccn2)nn1)Nc1nccs1 = 4.83
• CSCCC(NS(=O)(=O)c1cccc(C(F)(F)F)c1)C(=O)N(C)Cc1ccc2c(c1)OCCO2 (configuration not stated) = -15.2

Okay, now this compound:
Look up inhibition for this compound: CC(=O)Nc1ccc(NC(=O)C(C)OC(=O)C(C)SCC(=O)Nc2ccc(C)cc2)cc1 (configuration not stated)
-10.9

###

Measurement notes: H1N1 influenza NS1A inhibitors, functional cell based assay (AID 504329)
Experimental conditions: percent inhibition, at 12.5 µM, stronger effect = higher value
Out of some 340,000 compounds screened, about 1,000 (0.29%) were called active. Not all results are given here. Entries with a potency or affinity are not part of this list.
Measurement type: inhibition (%)
# value in %; strip the unit string

Look up inhibition for this compound: O=C(Cc1ccc(N(CCCl)CCCl)cc1)NC(Cc1ccc(Cl)cc1)C(=O)O (stereo not given)
-4.27

Further, for `CCN(CC)c1ccc(C=NN2CCCCCC2)cc1` ?
1.15

Further, for `CNc1cccnc1C=NNC(N)=S` ?
17.7

Further, for Cc1cc(C(=O)NC(Cc2c[nH]c3ccccc23)C(=O)O)c(C)o1 (stereo not given) ?
1.37

Further, for `Cc1ccc(N=C2C(=O)Nc3ccccc32)cc1` ?
-4.95

Further, for `O=C(COC(=O)c1cccc(O)c1)Nc1ccc(Cl)cc1C(=O)c1ccccc1` ?
-7.75

Further, for `CCCCc1nnc(NC(=O)c2ccc(OCc3c(C)noc3C)cc2)s1` ?
3.77

Further, for `Cn1nc(C(C)(C)C)cc1C(=O)NNC(=O)c1ccc(C(F)(F)F)cc1` ?
-21.4

Further, for Cc1ccc(S(=O)(=O)NC(C)C(=O)Nc2ccc(C(N)=O)cc2)cc1 (stereo not given) ?
7.11

Further, for `CC(=O)n1cc(/C=N/NC(N)=S)c2ccccc21` ?
-5.48

Further, for `CCN(CC)S(=O)(=O)c1ccc(N/N=C/c2ccc(O)cc2)nc1` ?
7.84

Further, for `Nc1nn(-c2ccccc2)nc1C(=O)OCc1ccccc1F` ?
1.7

Further, for `Clc1nccnc1N/N=C/c1ccc(Br)cc1` ?
-20.8

Further, for O=C(OCc1ccccc1)N1CCC2CC1c1cc(-c3ccccc3)ccc12 (stereo not given) ?
-8.29

Further, for `Cn1cc(/C=N/NC(N)=S)c2ccccc21` ?
-12.5

Further, for `Cc1nc2ccccc2nc1N/N=C/c1ccc(O)cc1` ?
13.5

Further, for `Oc1ccc(/C=N/Nc2cccc(Cl)n2)c(O)c1` ?
10.3

Further, for `O=C1CSC(=S)N1N=Cc1cccc2ccccc12` ?
13.2

Source listed as PubChem BioAssay AID504329.
